Target: human MAO-B (Homo sapiens, UniProt P27338)
Sequence (P27338 1-520): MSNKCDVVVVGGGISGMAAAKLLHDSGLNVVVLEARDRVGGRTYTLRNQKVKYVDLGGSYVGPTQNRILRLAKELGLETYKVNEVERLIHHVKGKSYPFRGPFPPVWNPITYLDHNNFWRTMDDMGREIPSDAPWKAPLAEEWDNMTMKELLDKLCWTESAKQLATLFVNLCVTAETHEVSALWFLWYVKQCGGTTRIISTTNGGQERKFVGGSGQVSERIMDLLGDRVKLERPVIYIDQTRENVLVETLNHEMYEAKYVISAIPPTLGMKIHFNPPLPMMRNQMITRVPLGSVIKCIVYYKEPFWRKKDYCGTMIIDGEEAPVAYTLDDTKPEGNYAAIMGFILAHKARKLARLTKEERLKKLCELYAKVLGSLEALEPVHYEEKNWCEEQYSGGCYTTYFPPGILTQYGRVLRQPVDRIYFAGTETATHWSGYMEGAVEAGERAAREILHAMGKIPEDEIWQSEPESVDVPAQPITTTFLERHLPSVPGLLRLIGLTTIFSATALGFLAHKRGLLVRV
Counter-ions that a name gives are not always drawn.
# maps each entry to its IC50
Unit nM implied. Number only.

Solved entries (count: 4):
- compound: "NCCNC(=O)c1ccc(OCc2ccc(C(F)(F)F)cc2)c(F)c1 [Example 36, hydrochloride]"
  resultType: "IC50"
  unitDescriptor: "nM"
  readoutValue: 19
- compound: "NC(=O)[C@H](CO)NC(=O)c1ccc(OCc2cccc(F)c2)cc1F"
  resultType: "IC50"
  unitDescriptor: "nM"
  readoutValue: 11.6
- compound: "C[C@H](NC(=O)c1ccc(OCc2ccc(F)cc2)cc1F)C(N)=O"
  resultType: "IC50"
  unitDescriptor: "nM"
  readoutValue: 7
- compound: "COCCNC(=O)c1c(F)cc(OCc2cccc(F)c2)cc1F"
  resultType: "IC50"
  unitDescriptor: "nM"
  readoutValue: 24

Given the entry C[C@H](NC(=O)c1ccc(OCc2cccc(F)c2)c(F)c1)C(N)=O , report its measured IC50.
19

Given the entry NC(=O)[C@H](CO)NC(=O)c1ccc(OCc2ccc(F)cc2)c(F)c1 , report its measured IC50.
11

Given the entry C[C@H](NC(=O)c1ccc(OCc2cccc(F)c2)cc1F)C(N)=O , report its measured IC50.
5.9

Given the entry C[C@H](NC(=O)c1ccc(OCc2ccc(C(F)(F)F)cc2)cc1F)C(N)=O , report its measured IC50.
25.7

Given the entry COCCNC(=O)c1c(F)cc(OCc2ccc(F)cc2)cc1F , report its measured IC50.
13

Given the entry NC(=O)CNC(=O)c1c(F)cc(OCc2ccc(F)cc2)cc1F , report its measured IC50.
27

Given the entry NC(=O)CNC(=O)c1ccc(OCc2cccc(F)c2)c(F)c1 , report its measured IC50.
5
